Molecular target: human MRGPRD (Homo sapiens)
Sequence (Q8TDS7 whole entry): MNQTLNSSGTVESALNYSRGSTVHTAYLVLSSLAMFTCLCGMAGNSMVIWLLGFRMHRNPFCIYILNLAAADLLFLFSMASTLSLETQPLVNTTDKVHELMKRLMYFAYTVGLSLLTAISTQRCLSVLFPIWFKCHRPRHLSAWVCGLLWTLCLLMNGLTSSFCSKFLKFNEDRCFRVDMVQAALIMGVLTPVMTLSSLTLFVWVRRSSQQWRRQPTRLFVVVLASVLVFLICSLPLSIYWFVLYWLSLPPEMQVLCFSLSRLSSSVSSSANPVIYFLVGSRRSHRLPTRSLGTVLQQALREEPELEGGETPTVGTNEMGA
Test: MRGPRD antagonist activity, IP-One HTRF assay in CHO cells stably expressing human MRGPRD (versus 100 μM β-Alanine agonist)
pIC50: −log10 of the molar value.
In this section we review reported pIC50 values for a set of compounds.

> print(dat)
                                   compound         value
1  Cc1nn2ccccc2c1-c1ccc(-n2nnc(C(=O)NC3(c4cccnc4)CC3)c2C2CC2)cc1  6.00 to 6.30
2  Cn1ncc(-c2ccc(-n3nnc(C(=O)Nc4ccncc4)c3C3CC3)cc2)n1  6.30 to 7.00
3  Cn1ncc2c1CN(C(=O)c1nnn(-c3ccc(-c4ccccc4)cc3)c1C1CC1)C2  6.30 to 7.00
4  Cc1cc(NC(=O)c2nnn(C3CC=C(c4ccc(F)cc4)CC3)c2C2CC2)ccn1 (stereo not shown)  6.00 to 6.30
5  CCO/C=C/c1cc(-n2nnc(C(=O)Nc3ccncc3)c2C2CC2)ccc1-c1c(C)nn(C)c1C  5.52 to 6.00

Asked: Given the entry CC(C)c1cc(NC(=O)c2nnn(-c3ccc(-c4ccccc4)cc3)c2C2CC2)ccn1 , report its measured pIC50.
Given back: 6.30 to 7.00

Asked: Given the entry CC(=O)c1cc(NC(=O)c2nnn(-c3ccc(-c4ccccc4)cc3)c2C2CC2)ccn1 , report its measured pIC50.
Given back: 5.52 to 6.00

Asked: Given the entry O=C(Nc1ccncc1)c1nnn(-c2cc3ccccc3s2)c1C1CC1 , report its measured pIC50.
Given back: 5.52 to 6.00

Asked: Given the entry Cc1cccc(-n2nnc(C(=O)Nc3ccncc3)c2C2CC2)c1 , report its measured pIC50.
Given back: < 5.52

Asked: Given the entry O=C(Nc1ccncc1)c1nnn(-c2ccc(-c3n[nH]cc3F)cc2)c1C1CC1 , report its measured pIC50.
Given back: 6.00 to 6.30
